biological target: human MMP13 (Homo sapiens (Human), UniProt P45452); details: read-out: hMMP-13 potency IC50
Measurement Name: IC50

Compound: CC1(CC(CO)C(=O)N2CCN(c3cc(Cl)cc(Cl)c3)CC2)NC(=O)NC1=O (stereo not shown) [compound 220]
Reading: > 4 µM

Could you tell me IC50 for each of these compounds? They are listed below.
1. C[C@H]1CN(C(=O)CCC2(C)NC(=O)NC2=O)CCN1c1ccc(F)c(F)c1 (stereo partly shown)
2. Cc1ccccc1N1CCN(C(=O)CCC2(c3cccnc3)NC(=O)NC2=O)CC1 (stereo not shown)

["> 20 µM", "> 20 µM"]
